Biological target: human Gal-3 (hGal-3) (Homo sapiens (Human))
Sequence (P17931 whole entry): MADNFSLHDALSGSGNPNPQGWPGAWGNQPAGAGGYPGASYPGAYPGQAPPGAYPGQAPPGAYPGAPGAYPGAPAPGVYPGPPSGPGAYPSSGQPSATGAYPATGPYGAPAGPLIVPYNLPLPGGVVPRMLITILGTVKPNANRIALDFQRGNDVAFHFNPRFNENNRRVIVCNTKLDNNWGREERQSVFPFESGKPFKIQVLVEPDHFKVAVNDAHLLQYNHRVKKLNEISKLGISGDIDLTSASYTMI
Assay: Competitive binding assay: biotinylated hGal-3 binding to microplate-adsorbed asialofetuin (ASF)
Conditions: Activity on hGal-3; mean values of several measurements; mixture of diastereomers measured where not separated
Description: The inhibitory activity of compounds is determined in competitive binding assays. This spectrophotometric assay measures the binding of biotinylated human Gal-3 (hGal-3) or human Gal-1 (hGal-1), respectively, to a microplate-adsorbed glycoprotein, asialofetuin (ASF) (Proc Natl Acad Sci USA. 2013 Mar 26;110(13):5052-7.). […] The calculated IC50 values may fluctuate depending on the daily assay performance. […]
Please assign F whenever IC50 is at or above 0.1 µM, and T whenever it is below.

Some entries whose results are on file:
[
  {
    "Molecule": "CO[C@@H]1[C@@H](n2cc(-c3cc(F)c(F)c(F)c3)nn2)[C@@H](O)[C@@H](CO)O[C@H]1C(=O)N(c1cc(C)cc(C#N)c1)[C@H]1COC[C@@H]1O [Example 10]",
    "Assayed system": "human Gal-3 (hGal-3) (Homo sapiens (Human))",
    "Assigned category": "F"
  },
  {
    "Molecule": "CO[C@@H]1[C@@H](n2cc(-c3cc(F)c(F)c(F)c3)nn2)[C@@H](O)[C@@H](CO)O[C@H]1C(=O)N(c1cccc(Br)c1)[C@H]1COC[C@@H]1O [Example 2]",
    "Assayed system": "human Gal-3 (hGal-3) (Homo sapiens (Human))",
    "Assigned category": "T"
  },
  {
    "Molecule": "CO[C@@H]1[C@@H](n2cc(-c3ccc(Cl)c(Cl)c3)nn2)[C@@H](O)[C@@H](CO)O[C@H]1C(=O)N(c1cc(Cl)cc(Cl)c1)[C@H]1COC[C@@H]1O [Example 26]",
    "Assayed system": "human Gal-3 (hGal-3) (Homo sapiens (Human))",
    "Assigned category": "F"
  }
]

Query string: Quick check: IC50 of CO[C@@H]1[C@@H](n2cc(-c3cc(F)c(C)c(F)c3)nn2)[C@@H](O)[C@@H](CO)O[C@H]1C(=O)N(c1cc(Cl)cc(Cl)c1)[C@@H]1COC[C@H]1O [Example 44] under 0.1 µM?
Result string: T
